Experiment: Proof-of-concept trial: entry PK study, deferiprone in serum after the first oral dose
Format: in vivo, human
Details: both sexes, human, serum, oral, approximation from pharmacokinetic, viral load and tolerability findings; read-out: serum cmax an effective and tolerable regimen may have to achieve
Recorded endpoint: Cmax

In: Please report the measured Cmax for Cc1c(O)c(=O)ccn1C [deferiprone, 3-hydroxy-1,2-dimethylpyridin-4-one]
Out: 150 to 275 µM

----------
Test: in vitro
Type: cell-based
Details: human
Recorded endpoint: viability at 200 μM

In: Please report the measured viability at 200 μM for Cc1c(O)c(=O)ccn1C [deferiprone, 3-hydroxy-1,2-dimethylpyridin-4-one]
Out: > 95%

----------
Experiment: Proof-of-concept trial: entry PK study, deferiprone in serum after the first oral dose
Type: in vivo, human
Conditions: both sexes, human, serum, po, 33 mg/kg, 99 mg group, first oral dose 33 mg/kg, serum; read-out: cmax, range within group
Recorded endpoint: Cmax

In: Please report the measured Cmax for Cc1c(O)c(=O)ccn1C [deferiprone, 3-hydroxy-1,2-dimethylpyridin-4-one]
Out: 53 to 314 µM

----------
Experiment: in vitro
Format: cell-based
Settings: human
Recorded endpoint: viability at 200 µM

In: Please report the measured viability at 200 µM for Cc1c(O)c(=O)ccn1C [deferiprone, 3-hydroxy-1,2-dimethylpyridin-4-one]
Out: ≥ 95%

----------
Experiment: Proof-of-concept trial: entry PK study, deferiprone in serum after the first oral dose
Format: in vivo, human
Settings: both sexes, human, serum, po, 50 mg/kg, 150 mg group, first oral dose 50 mg/kg, serum; read-out: cmax, range within group
Recorded endpoint: Cmax

In: Please report the measured Cmax for Cc1c(O)c(=O)ccn1C [deferiprone, 3-hydroxy-1,2-dimethylpyridin-4-one]
Out: 128 to 285 µM

----------
Assay: Proof-of-concept trial: entry PK study, deferiprone in serum after the first oral dose
Format: in vivo, human
Settings: human, serum, oral, 150 mg, Subject 22, 150 mg group, serum; read-out: cmax
Recorded endpoint: Cmax

In: Please report the measured Cmax for Cc1c(O)c(=O)ccn1C [deferiprone, 3-hydroxy-1,2-dimethylpyridin-4-one]
Out: 285 µM
